Provenance of the data: paper PMC9414972

- SYSTEM_TESTED: porcine pancreatic amylase (Sus scrofa, UniProt P00690)
- Construct: purchased Merck
- Sequence (P00690 16-511): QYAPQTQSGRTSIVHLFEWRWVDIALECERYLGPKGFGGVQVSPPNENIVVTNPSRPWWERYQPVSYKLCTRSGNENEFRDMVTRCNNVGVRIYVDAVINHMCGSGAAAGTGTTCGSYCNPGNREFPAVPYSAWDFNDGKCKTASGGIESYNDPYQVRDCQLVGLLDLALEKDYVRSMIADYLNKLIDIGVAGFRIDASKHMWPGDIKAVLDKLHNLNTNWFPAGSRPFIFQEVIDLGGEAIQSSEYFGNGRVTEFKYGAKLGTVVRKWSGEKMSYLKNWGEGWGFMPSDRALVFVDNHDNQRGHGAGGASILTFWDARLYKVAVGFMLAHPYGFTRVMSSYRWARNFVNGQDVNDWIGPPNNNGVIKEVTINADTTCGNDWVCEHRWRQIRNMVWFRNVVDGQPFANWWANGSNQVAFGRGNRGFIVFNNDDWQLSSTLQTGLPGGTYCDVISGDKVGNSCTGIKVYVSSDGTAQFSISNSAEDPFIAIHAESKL
- MEASUREMENT_DESCRIPTION: α-Amylase inhibitory activity (starch/DNS)
- Assay type: biochemical
- MEASUREMENT_CONDITIONS: porcine pancreatic amylase, starch, pH 6.9, 25 °C; read-out: IC50 α-Amylase
IC50 by entry:
READOUT_NAME: IC50

{"COMPOUND": "Clc1ccc(CSc2nnc(COc3cccc4cccnc34)o2)cc1", "RESULT": "> 500 µM"}
{"COMPOUND": "c1ccc(-n2cc(CSc3nnc(COc4cccc5cccnc45)o3)nn2)cc1 [12k]", "RESULT": "> 500 µM"}
{"COMPOUND": "Brc1cccc(CSc2nnc(COc3cccc4cccnc34)o2)c1", "RESULT": "427 µM"}
{"COMPOUND": "CCSc1nnc(COc2cccc3cccnc23)o1", "RESULT": "> 500 µM"}
{"COMPOUND": "Cc1cccc(C)c1-n1cc(CSc2nnc(COc3cccc4cccnc34)o2)nn1 [12t]", "RESULT": "> 500 µM"}
{"COMPOUND": "CCCCCCSc1nnc(COc2cccc3cccnc23)o1", "RESULT": "210 µM"}
{"COMPOUND": "Clc1ccc(Cn2cc(CSc3nnc(COc4cccc5cccnc45)o3)nn2)c(Cl)c1 [12i]", "RESULT": "> 500 µM"}
{"COMPOUND": "Clc1ccc(Cn2cc(CSc3nnc(COc4cccc5cccnc45)o3)nn2)cc1 [12d]", "RESULT": "> 500 µM"}
{"COMPOUND": "O=[N+]([O-])c1ccc(Cn2cc(CSc3nnc(COc4cccc5cccnc45)o3)nn2)cc1 [12g]", "RESULT": "> 500 µM"}

----------
- MEASUREMENT_DESCRIPTION: Nitric oxide (NO) scavenging activity
- MEASUREMENT_CONDITIONS: nitric oxide radical scavenging, 37 °C, 2 h

{"COMPOUND": "Sc1nnc(COc2cccc3cccnc23)o1", "BOUND_OPERATOR": "=", "IC50 [µM]": 464}
{"COMPOUND": "Clc1ccc(-n2cc(CSc3nnc(COc4cccc5cccnc45)o3)nn2)c(Cl)c1 [12r]", "BOUND_OPERATOR": ">", "IC50 [µM]": 500}
{"COMPOUND": "Fc1ccc(Cn2cc(CSc3nnc(COc4cccc5cccnc45)o3)nn2)cc1F [12j]", "BOUND_OPERATOR": ">", "IC50 [µM]": 500}
{"COMPOUND": "Clc1cccc(Cl)c1-n1cc(CSc2nnc(COc3cccc4cccnc34)o2)nn1 [12s]", "BOUND_OPERATOR": ">", "IC50 [µM]": 500}
{"COMPOUND": "CCCCCSc1nnc(COc2cccc3cccnc23)o1", "BOUND_OPERATOR": "=", "IC50 [µM]": 457}
{"COMPOUND": "Clc1ccc(Cn2cc(CSc3nnc(COc4cccc5cccnc45)o3)nn2)cc1 [12d]", "BOUND_OPERATOR": ">", "IC50 [µM]": 500}
{"COMPOUND": "CC(C)=CCSc1nnc(COc2cccc3cccnc23)o1", "BOUND_OPERATOR": ">", "IC50 [µM]": 500}
{"COMPOUND": "Brc1ccc(-n2cc(CSc3nnc(COc4cccc5cccnc45)o3)nn2)cc1 [12n]", "BOUND_OPERATOR": ">", "IC50 [µM]": 500}
{"COMPOUND": "O=[N+]([O-])c1ccc(Cn2cc(CSc3nnc(COc4cccc5cccnc45)o3)nn2)cc1 [12g]", "BOUND_OPERATOR": "=", "IC50 [µM]": 3.01}
{"COMPOUND": "CCSc1nnc(COc2cccc3cccnc23)o1", "BOUND_OPERATOR": "=", "IC50 [µM]": 2.67}
